# credit: the supplement of paper PMC11208160

Can you tell me recombinant barcode read abundance (log10) for the items I'm about to list?
measurement-notes: recombinant barcode read abundance after kanamycin selection (control-corrected) (log10(CPM+1)); higher = more efficient recombination; sequences stand for … in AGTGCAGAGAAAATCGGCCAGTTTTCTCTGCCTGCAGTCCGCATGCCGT…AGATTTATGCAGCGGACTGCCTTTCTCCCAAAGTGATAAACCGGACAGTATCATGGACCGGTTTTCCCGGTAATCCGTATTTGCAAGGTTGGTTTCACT; site = the 11-nt target;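 also: IS621 recombinase and bridge RNA in Escherichia coli cells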

## Input # get_value(readout='recombinant barcode read abundance (log10)', item= GTGTACTCTTGGGTTCTAACCTGTTGCTT (site GTGGACTCTTA) )
## Output 0.0612

## Input # get_value(readout='recombinant barcode read abundance (log10)', item= GTTGGAGCTTGGGTTCTAACCTGTTGCCT (site GTTTGAGCTAG) )
## Output 0.304

## Input # get_value(readout='recombinant barcode read abundance (log10)', item= CGGAGCTCTTGGGTTCTAACCTGTTGCCT (site CGCAGCTCTAG) )
## Output 0.293

## Input # get_value(readout='recombinant barcode read abundance (log10)', item= TGGTACGCTTGGGTTCTAACCTGTTGCCT (site TGGTTCGCTAG) )
## Output 0.24

## Input # get_value(readout='recombinant barcode read abundance (log10)', item= AAGCCCACTTGGGTTCTAACCTGTTGCGG (site AAGCCCACTCC) )
## Output 2.28

## Input # get_value(readout='recombinant barcode read abundance (log10)', item= GCCAAGCCTTGGGTTCTAACCTGTTGCTG (site TCCAACCCTCA) )
## Output 0.0182

## Input # get_value(readout='recombinant barcode read abundance (log10)', item= GGTGGGTCTTGGGTTCTAACCTGTTGCAT (site GGTGGGTCTAG) )
## Output 0.805

## Input # get_value(readout='recombinant barcode read abundance (log10)', item= CACCCTACTTGGGTTCTAACCTGTTGCCT (site AACCCTACTAG) )
## Output 0.04

## Input # get_value(readout='recombinant barcode read abundance (log10)', item= GGTCATTCTTGGGTTCTAACCTGTTGCCT (site GGTCATACTAG) )
## Output 0.0311

## Input # get_value(readout='recombinant barcode read abundance (log10)', item= GTCTTCCCTTGGGTTCTAACCTGTTGCCG (site ATCTTACCTCG) )
## Output 0.0566

## Input # get_value(readout='recombinant barcode read abundance (log10)', item= TCATTCGCTTGGGTTCTAACCTGTTGCCT (site TCCTTAGCTAG) )
## Output 0.186

## Input # get_value(readout='recombinant barcode read abundance (log10)', item= ACTTGAACTTGGGTTCTAACCTGTTGCTT (site ACTTGAACTAA) )
## Output 0.0959

## Input # get_value(readout='recombinant barcode read abundance (log10)', item= ACTAATCCTTGGGTTCTAACCTGTTGCTT (site ACTAATCCTAA) )
## Output 0.236
